Test system: 60 human tumor cell lines (NCI60)
protocol: NCI60 one-dose screen (10 μM), whole panel
Assay type: cell-based
setup_conditions: Homo sapiens, read-out: Growth percent rate, Mean
Exercise: state measured activity at 10 µM for each of the compounds provided.
For clarity, give the value followed by its unit.

Request: Name the value of activity at 10 µM reported for CCC12C=CCN3CCC4(c5cc(NC(=O)CN6CCN(Cc7ccc(F)cc7)CC6)c(OC)cc5N(C)C4C(O)(C(=O)OC)C1OC(C)=O)C32 (stereo not drawn) [Compound 19] when tested on 60 human tumor cell lines (NCI60).
Result: 99.6%

Request: State activity at 10 µM (60 human tumor cell lines (NCI60)) of CCC12C=CCN3CCC4(c5cc(NC(=O)CN6CCN(Cc7ccc(C(F)(F)F)cc7)CC6)c(OC)cc5N(C)C4C(O)(C(=O)OC)C1OC(C)=O)C32 (stereo not drawn) [Compound 18] .
Result: 60.6%

Request: Look up and report measured activity at 10 µM (60 human tumor cell lines (NCI60)) for the following compound: CC[C@]12C=CCN3CC[C@@]4(c5ccc(OC)cc5N(C)[C@H]4[C@@](O)(C(=O)OC)[C@@H]1OC(=O)CCCN1CCN(C(c4ccc(F)cc4)c4ccc(F)cc4)CC1)[C@@H]32 [Compound 25]
Result: -79.9%

Request: Quote activity at 10 µM with test system 60 human tumor cell lines (NCI60) for CC[C@]12C=CCN3CC[C@@]4(c5ccc(OC)cc5N(C)[C@H]4[C@@](O)(C(=O)OC)[C@@H]1OC(=O)CCC(=O)N1CCN(C(=O)c4ccco4)CC1)[C@@H]32 [Compound 32]
Result: 97.2%

Request: Provide measured activity at 10 µM on 60 human tumor cell lines (NCI60) for CCC12C=CCN3CCC4(c5ccc(OC)cc5N(C)C4C(O)(C(=O)OC)C1O)C32 (stereo not drawn) [Compound 13, 17-desacetylvindoline] please.
Result: 98.8%

Request: Retrieve activity at 10 µM on 60 human tumor cell lines (NCI60); query CCC12C=CCN3CC[C@@]4(c5ccc(OC)cc5N(C)[C@H]4[C@@](O)(C(=O)OC)[C@@H]1OC(C)=O)[C@@H]32 (stereo partly drawn) [Compound 1, vindoline]
Result: 107%

---

Test system: RPMI-8226
protocol: NCI60 one-dose screen (10 μM), Leukemia
Assay type: cell-based
setup_conditions: Homo sapiens, RPMI-8226, read-out: Growth percent rate
value_kind: activity at 10 µM (%)
Please respond with the number in % and leave the unit unwritten.

Request: Given CCC12C=CCN3CCC4(c5cc(NC(=O)CN6CCN(Cc7ccc(F)cc7)CC6)c(OC)cc5N(C)C4C(O)(C(=O)OC)C1OC(C)=O)C32 (stereo not drawn) , respond with its activity at 10 µM.
Result: 94.1

Request: # return recorded activity at 10 µM for input CC[C@]12C=CCN3CC[C@@]4(c5ccc(OC)cc5N(C)[C@H]4[C@@](O)(C(=O)OC)[C@@H]1OC(=O)CCCN1CCN(C(c4ccc(F)cc4)c4ccc(F)cc4)CC1)[C@@H]32
Result: -50.1

Request: Fill in reported activity at 10 µM for this entry: CCC12C=CCN3CCC4(c5ccc(OC)cc5N(C)C4C(O)(C(=O)OC)C1O)C32 (stereo not drawn)
Result: 99.4

Request: Using known records, supply activity at 10 µM for CCC12C=CCN3CCC4(c5cc(NC(=O)CN6CCN(Cc7ccc(C(F)(F)F)cc7)CC6)c(OC)cc5N(C)C4C(O)(C(=O)OC)C1OC(C)=O)C32 (stereo not drawn)
Result: 17.4

Request: Hello, please tell me recorded activity at 10 µM for this one: CCC12C=CCN3CC[C@@]4(c5ccc(OC)cc5N(C)[C@H]4[C@@](O)(C(=O)OC)[C@@H]1OC(C)=O)[C@@H]32 (stereo partly drawn)
Result: 105

Request: Look up and state reported activity at 10 µM for CC[C@]12C=CCN3CC[C@@]4(c5ccc(OC)cc5N(C)[C@H]4[C@@](O)(C(=O)OC)[C@@H]1OC(=O)CCC(=O)N1CCN(C(=O)c4ccco4)CC1)[C@@H]32
Result: 99.4

// provenance: paper PMC11277489
